- test details: in vitro
- settings: human
quantity kind: CC50 (µM)
Answers are plain numbers, in µM.

IN: What CC50 value was documented for this compound, CN[C@H](CC(C)C)C(=O)N[C@H]1C(=O)N[C@@H](CC(N)=O)C(=O)N[C@H]2C(=O)N[C@H]3C(=O)N[C@H](C(=O)N[C@H](C(=O)O)c4cc(O)cc(O)c4-c4cc3ccc4O)[C@H](O[C@H]3C[C@](C)(N)[C@@H](O)[C@H](C)O3)c3ccc(c(Cl)c3)Oc3cc2cc(c3O[C@@H]2O[C@H](CO)[C@@H](O)[C@H](O)[C@H]2O[C@H]2C[C@](C)(NCc3ccc(-c4ccc(Cl)cc4)cc3)[C@@H](O)[C@H](C)O2)Oc2ccc(cc2Cl)[C@H]1O ?
OUT: 75.8

###

- Tested on: ZIKV FB-GWUH-2016 strain
- test details: Viability and death of ZIKV-infected RPE cells
- Format: cell-based, Zika virus
- settings: Zika virus, RPE, read-out: EC50 CTxG
quantity kind: EC50 (nM)
Numbers only, in nM.

Known results for compounds:
compound=Nc1ccn([C@@H]2O[C@H](CO)[C@@H](O)C2(F)F)c(=O)n1 measured_number=70
compound="CCN(CCO)CCCC(C)Nc1ccnc2cc(Cl)ccc12 (stereo not shown) [Hydroxychloroquine]" measured_number=60
compound=O=C1[C@H](CC[C@H](O)c2ccc(F)cc2)[C@@H](c2ccc(O)cc2)N1c1ccc(F)cc1 measured_number=90

IN: For Nc1ncnc2c([C@@H]3N[C@H](CO)[C@@H](O)[C@H]3O)c[nH]c12 , what is its reported EC50?
OUT: 2960

###

Field: CC50. Provide a value for each of the compounds that follow.
- test details: in vitro
- settings: human

line_notation=O=C1[C@H](CC[C@H](O)c2ccc(F)cc2)[C@@H](c2ccc(O)cc2)N1c1ccc(F)cc1 quantity_kind=CC50 result="> 30 µM"

IN: Consider the compound shown here: CO[C@H]1C[C@@H]2CC[C@@H](C)[C@@](O)(O2)C(=O)C(=O)N2CCCC[C@H]2C(=O)O[C@H]([C@H](C)C[C@@H]2CC[C@@H](O)[C@H](OC)C2)CC(=O)[C@H](C)/C=C(\C)[C@@H](O)[C@@H](OC)C(=O)[C@H](C)C[C@H](C)/C=C/C=C/C=C/1C What is its recorded CC50?
OUT: > 30 µM

###

- Tested on: FLUAV (influenza A/WSN/33(H1N1) virus)
- test details: microbe, parasite or virus in culture
- Assay type: cell-based
- settings: Influenza A virus, H1N1|WSN, RPE, read-out: EC50 CTxG
quantity kind: pEC50
Give bare numbers, as −log10 of the molar value.

IN: // lookup pEC50 | system=FLUAV (influenza A/WSN/33(H1N1) virus) | key= Nc1ccn([C@@H]2O[C@H](CO)[C@@H](O)C2(F)F)c(=O)n1
OUT: 5.99

###

I'd be grateful if you could share measured pEC50 for these entries.
- System: CHIKV-2SG-NanoLuc
- test details: microbe, parasite or virus in culture
- Type: cell-based, Chikungunya virus
- settings: Chikungunya virus, RPE, read-out: EC50 other
Give bare numbers, as −log10 of the molar value.

compound="CCN(CC)CCCC(C)Nc1ccnc2cc(Cl)ccc12 (centres unmarked)" quantity_kind=pEC50 measured_number=4.77

// moving on: another record for pEC50
IN: Fill blank: measured pEC50 of the compound COc1c(C)c2c(c(O)c1C/C=C(\C)CCC(=O)O)C(=O)OC2 is ____.
OUT: 7.05

###

- System: ZIKV FB-GWUH-2016 strain
- test details: Viability and death of ZIKV-infected RPE cells
- Type: cell-based, Zika virus
- settings: ZIKV, RPE cells
quantity kind: SI (minimal selectivity index, CC50/EC50)

compound=Nc1ccn([C@@H]2O[C@H](CO)[C@@H](O)C2(F)F)c(=O)n1 result=23

Each compound below has a reported value. Please supply its SI (minimal selectivity index, CC50/EC50).
1. O=C1[C@H](CC[C@H](O)c2ccc(F)cc2)[C@@H](c2ccc(O)cc2)N1c1ccc(F)cc1
2. Cc1cccc(C)c1OCC(=O)N[C@@H](Cc1ccccc1)[C@@H](O)C[C@H](Cc1ccccc1)NC(=O)[C@H](C(C)C)N1CCCNC1=O
3. Nc1ncnc2c([C@@H]3N[C@H](CO)[C@@H](O)[C@H]3O)c[nH]c12
4. CCN(CCO)CCCC(C)Nc1ccnc2cc(Cl)ccc12 (stereo not drawn) [Hydroxychloroquine]
5. CCN(CC)CCCC(C)Nc1ccnc2cc(Cl)ccc12 (stereo not drawn)

OUT:
1. >333
2. >1
3. >2
4. >1
5. >4

###

- System: FLUAV (influenza A/WSN/33(H1N1) virus)
- test details: microbe, parasite or virus in culture
- Format: cell-based
- settings: Influenza A virus, H1N1|WSN, RPE, read-out: EC50 CTG
quantity kind: EC50

IN: Given the entry Nc1ccn([C@@H]2O[C@H](CO)[C@@H](O)C2(F)F)c(=O)n1 , report its measured EC50.
OUT: 250 nM

###

- System: FLUAV (influenza A/WSN/33(H1N1) virus)
- test details: microbe, parasite or virus in culture
- Assay type: cell-based
- settings: Influenza A virus, H1N1|WSN, read-out: EC50 other
quantity kind: EC50 (nM)
Numbers only, in nM.

IN: Request body: readout EC50, system FLUAV (influenza A/WSN/33(H1N1) virus), query Nc1ccn([C@@H]2O[C@H](CO)[C@@H](O)C2(F)F)c(=O)n1 [Gemcitabine] . Return the value.
OUT: 890

###

- Test system: RPE cells
- settings: human
quantity kind: CC50 (µM)
Numbers only, in µM.

IN: So what does the record say about CC50 for Nc1ccn([C@@H]2O[C@H](CO)[C@@H](O)C2(F)F)c(=O)n1 ?
OUT: 21.8

###

- Tested on: HIV-1
- test details: HIV-1 infection of TZM-bl cells, firefly luciferase under HIV-1 LTR promoter
- Assay type: cell-based, Human immunodeficiency virus 1
- settings: Human immunodeficiency virus 1, TZM-bl, read-out: EC50 other
quantity kind: EC50 (µM)
One number for each entry, in µM.

Use these answered entries as a reference point.
compound="CO[C@H]1C[C@@H]2CC[C@@H](C)[C@@](O)(O2)C(=O)C(=O)N2CCCC[C@H]2C(=O)O[C@H]([C@H](C)C[C@@H]2CC[C@@H](O)[C@H](OC)C2)CC(=O)[C@H](C)/C=C(\\C)[C@@H](O)[C@@H](OC)C(=O)[C@H](C)C[C@H](C)/C=C/C=C/C=C/1C [Rapamycin]" quantity_kind=EC50 unit_descriptor=µM measured_number=18.9
compound="O=C1[C@H](CC[C@H](O)c2ccc(F)cc2)[C@@H](c2ccc(O)cc2)N1c1ccc(F)cc1 [Ezetimibe]" quantity_kind=EC50 unit_descriptor=µM measured_number=13.2

Switching to the query record.
IN: Bench note: what EC50 did CN(C)c1ccc(O)c2c1C[C@H]1C[C@H]3[C@H](N(C)C)C(O)=C(C(N)=O)C(=O)[C@@]3(O)C(O)=C1C2=O [Minocycline] show?
OUT: 6.84

###

Answer each item with its documented pEC50.
- System: EV1
- test details: microbe, parasite or virus in culture
- Assay type: cell-based, Echovirus 1
- settings: Enterovirus B, RPE, read-out: EC50 CTxG
Give bare numbers, as −log10 of the molar value.

molecule=Nc1ccn([C@@H]2O[C@H](CO)[C@@H](O)C2(F)F)c(=O)n1 measured_number=7.10
molecule=CCCCOc1cc(C(=O)NCCN(CC)CC)c2ccccc2n1 measured_number=5.69

We next turn to a different molecule, shown below.
IN: What pEC50 value was documented for this molecule, Cc1ccc2c(c1)c1c3n2CCNC3CCC1 (stereo not drawn) ?
OUT: 5.57

###

Task for the reader: assign each of the following compounds its reported CC50.
- test details: in vitro
- settings: human, CC50 CTG

compound=Nc1ncnc2c([C@@H]3N[C@H](CO)[C@@H](O)[C@H]3O)c[nH]c12 quantity_kind=CC50 result="> 30 µM"
compound="CNCCC(Oc1ccc(C(F)(F)F)cc1)c1ccccc1 (centres unmarked)" quantity_kind=CC50 result="4.02 µM"

Give CC50 for each listed item.
1. Nc1ccn([C@@H]2O[C@H](CO)[C@@H](O)C2(F)F)c(=O)n1
2. O=C1[C@H](CC[C@H](O)c2ccc(F)cc2)[C@@H](c2ccc(O)cc2)N1c1ccc(F)cc1
3. Cc1cccc(C)c1OCC(=O)N[C@@H](Cc1ccccc1)[C@@H](O)C[C@H](Cc1ccccc1)NC(=O)[C@H](C(C)C)N1CCCNC1=O

OUT:
1: > 30 µM; 2: > 30 µM; 3: > 30 µM

###

- test details: in vitro
- settings: human, CC50 CTG
quantity kind: CC50

Record excerpt, results attached:
compound="CCN(CC)CCCC(C)Nc1ccnc2cc(Cl)ccc12 (centres unmarked)" quantity_kind=CC50 result="> 30 µM"
compound="Cc1ccc2c(c1)c1c3n2CCNC3CCC1 (centres unmarked)" quantity_kind=CC50 result="28.5 µM"
compound=COc1c(C)c2c(c(O)c1C/C=C(\C)CCC(=O)O)C(=O)OC2 quantity_kind=CC50 result="> 30 µM"
compound="CCN(CCO)CCCC(C)Nc1ccnc2cc(Cl)ccc12 (centres unmarked) [Hydroxychloroquine]" quantity_kind=CC50 result="> 30 µM"

--- query ---
IN: Requested read-out: CC50. Entry: CCCCOc1cc(C(=O)NCCN(CC)CC)c2ccccc2n1
OUT: > 30 µM
